Known activity coefficient of a selection of compounds
test: activity coefficient (dimensionless); of the first substance listed, at infinite dilution; xn = mol fraction of the nth substance listed; conditions: 338.15 K; Liquid; Chromatography; x1 = 0
When you answer, write just the number.

{"columns": ["compound", "activity coefficient"],
 "data": [
  ["C=CCCCCCC [oct-1-ene] + COCC[N+]1(C)CCOCC1.O=S(=O)([N-]S(=O)(=O)C(F)(F)F)C(F)(F)F", 32.5],
  ["C1CCCCC1 [cyclohexane] + COCC[N+]1(C)CCOCC1.O=S(=O)([N-]S(=O)(=O)C(F)(F)F)C(F)(F)F", 15.6],
  ["C=CCCCCCCCC [1-decene] + COCC[N+]1(C)CCOCC1.O=S(=O)([N-]S(=O)(=O)C(F)(F)F)C(F)(F)F", 72.1]
]}

# evaluate next
The compound listed as C1COCCO1 [1,4-dioxane] + COCC[N+]1(C)CCOCC1.O=S(=O)([N-]S(=O)(=O)C(F)(F)F)C(F)(F)F has a reported activity coefficient of 0.615

====

assay: activity coefficient (dimensionless); of the first substance listed, at infinite dilution; xn = mol fraction of the nth substance listed; details: 318.15 K; Liquid; Chromatography; x1 = 0
Below: a set of entries, each annotated with reported activity coefficient.
Respond with the number and no other words.

{"columns": ["molecule", "assay value"],
 "data": [
  ["C#CCCCC [1-hexyne] + COCC[N+]1(C)CCOCC1.O=S(=O)([N-]S(=O)(=O)C(F)(F)F)C(F)(F)F", 4.88],
  ["Cc1ccccc1 [toluene] + COCC[N+]1(C)CCOCC1.O=S(=O)([N-]S(=O)(=O)C(F)(F)F)C(F)(F)F", 2.01],
  ["CCCCCCCC [octane] + COCC[N+]1(C)CCOCC1.O=S(=O)([N-]S(=O)(=O)C(F)(F)F)C(F)(F)F", 82.1],
  ["CC(C)O [propan-2-ol] + COCC[N+]1(C)CCOCC1.O=S(=O)([N-]S(=O)(=O)C(F)(F)F)C(F)(F)F", 2.17]
]}

Continue with the next molecule.
For record CCCC=O [butanal] + COCC[N+]1(C)CCOCC1.O=S(=O)([N-]S(=O)(=O)C(F)(F)F)C(F)(F)F the listed activity coefficient is 0.871

====

assay: activity coefficient (dimensionless); of the first substance listed, at infinite dilution; xn = mol fraction of the nth substance listed; conditions: 348.15 K; Liquid; Chromatography; x1 = 0
attribute measured: activity coefficient
Give a plain numeric answer without units written out.

The compound listed as CC(C)=O [acetone] + COCC[N+]1(C)CCOCC1.O=S(=O)([N-]S(=O)(=O)C(F)(F)F)C(F)(F)F has a reported activity coefficient of 0.461

Data point: CC(C)OC(C)C [diisopropyl ether] + COCC[N+]1(C)CCOCC1.O=S(=O)([N-]S(=O)(=O)C(F)(F)F)C(F)(F)F ; activity coefficient = 9.26

# activity coefficient (compound: CCOC(C)(C)C [2-ethoxy-2-methylpropane] + COCC[N+]1(C)CCOCC1.O=S(=O)([N-]S(=O)(=O)C(F)(F)F)C(F)(F)F ) is 8.75

activity coefficient for Cc1ccccc1C [1,2-dimethylbenzene] + COCC[N+]1(C)CCOCC1.O=S(=O)([N-]S(=O)(=O)C(F)(F)F)C(F)(F)F is 2.65

activity coefficient reading for CC(C)(C)O [2-methylpropan-2-ol] + COCC[N+]1(C)CCOCC1.O=S(=O)([N-]S(=O)(=O)C(F)(F)F)C(F)(F)F : 1.75

activity coefficient reading for CC#N [acetonitrile] + COCC[N+]1(C)CCOCC1.O=S(=O)([N-]S(=O)(=O)C(F)(F)F)C(F)(F)F : 0.431

Record summary for C=CCCCC [hex-1-ene] + COCC[N+]1(C)CCOCC1.O=S(=O)([N-]S(=O)(=O)C(F)(F)F)C(F)(F)F : reported activity coefficient = 13.6
